biological target: Cam1 (fission yeast calmodulin), amino-terminally acetylated (S. pombe, UniProt P05933 1-150, amino-terminal (Nt) acetylation); assay: FRET
Sequence (P05933 whole entry): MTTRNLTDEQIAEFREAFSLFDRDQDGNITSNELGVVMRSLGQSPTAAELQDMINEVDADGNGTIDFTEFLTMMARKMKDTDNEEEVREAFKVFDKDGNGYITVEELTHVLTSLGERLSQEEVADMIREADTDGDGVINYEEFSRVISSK
readout label: Kd (µM)
Give your result in µM as a bare value.

(Q) May I ask what Kd has been recorded for DTMATRIQRAWRSYVRRRSEA (domain or fragment) [CyPet-Myo1^IQ1-YPet FRET reporter protein] ?
(A) 0.06

Provenance of the data: paper doi:10.1101/498865
